- METHOD: Inhibition of HCV NS3 serine protease
- Set-up: species or system Hepacivirus hominis
Flag rule - Ki less than 200 nM flags fulfilled; the remaining entries get not fulfilled.

Answered examples (5):
| COMPOUND | ASSIGNED_LABEL |
| --- | --- |
| CC(F)(F)CC(NC(=O)[C@@H]1[C@@H]2[C@H](CN1C(=O)[C@@H](NC(=O)NC(C)(C)C)C(C)(C)C)C2(C)C)C(=O)C(N)=O (stereo partly specified) | not fulfilled |
| CC(C)(C)NC(=O)N[C@H](C(=O)N1C[C@H]2[C@@H]([C@H]1C(=O)NC(CC1CCC1)C(=O)C(N)=O)C2(C)C)C(C)(C)C (stereo partly specified) [BOCEPREVIR] | fulfilled |
| CC(C)(C)NC(=O)N[C@H](C(=O)N1C[C@H]2[C@@H]([C@H]1C(=O)NC(CC1(F)CCC1)C(=O)C(N)=O)C2(C)C)C(C)(C)C (stereo partly specified) | not fulfilled |
| CCC(F)(F)CC(NC(=O)[C@@H]1[C@@H]2[C@H](CN1C(=O)[C@@H](NC(=O)NC(C)(C)C)C(C)(C)C)C2(C)C)C(=O)C(N)=O (stereo partly specified) | not fulfilled |
| CC(C)(C)NC(=O)N[C@H](C(=O)N1C[C@H]2[C@@H]([C@H]1C(=O)NC(CCC(F)(F)F)C(=O)C(N)=O)C2(C)C)C(C)(C)C (stereo partly specified) | fulfilled |

Switching to the query record.
Problem: Threshold test, Ki < 200 nM: CC(C)(C)NC(=O)N[C@H](C(=O)N1C[C@H]2[C@@H]([C@H]1C(=O)NC(CC1(O)CCC1)C(=O)C(N)=O)C2(C)C)C(C)(C)C (stereo partly specified)
Solution: not fulfilled
